# Substrate: gfPET
# assay-overview: Proxy for plastic degradation [Relative activity]
# experimental-context: pH 8
Below, each entry is listed with its recorded Proxy for plastic degradation.

>  <protein>
unnamed (protein) MANPYERGPDPTESSIEAVRGPFAVAQTTVSRLQADGFGGGTIYYPTDTSQGTFGAVAISPGFTAGQESIAWLGPRIASQGFVVITIDTITRLDQPDSRGRQLQAALDHLRTNSVVRNRIDPNRMAVMGHSMGGGGALSAAANNTSLEAAIPLQGWHTRKNWSSVRTPTLVVGAQLDTIAPVSSHSEAFYNSLPSDLDKAYMELRGASHWVSNTPDTTTAKYSIAWLKRFVDDDLRYEQFLCPAPDDFAISEYRSTCPF

>  <result-unit>
%

>  <Proxy for plastic degradation>
85

$$$$
>  <protein>
unnamed (protein) MANPYERGPDPTESSIEAVRGPFAVAQTTVSRLQADGFGGGTIYYPTDTSQGTFGAVAISPGFTAGQESIAWLGPRIASQGFVVITIDTITRLDQPDSRGRQLQAALDHLRTNSVVRNRIDPNRMAVMGHSMGGGGALSAAANNTSLEAAIPLQGWHTRKNWSSVRTPTLVVGAQLDTIAPVSSHSEAFYNSLPSDLDKAYMELRGASHIVSNTPDTTTAKYSIAWLKRFVDDDLRYEQFLCPAPDDFAISEYRSTCPF

>  <result-unit>
%

>  <Proxy for plastic degradation>
54

$$$$
